B1: SERPINB5 (parent)
chain: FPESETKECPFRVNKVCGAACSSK

Variants of: B1
Assay: protein stability index of a GFP-peptide fusion (GPS, HEK-293T) (PSI 1-6); higher = more stable;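 also: lentivirally expressed fusions sorted by FACS into six bins by GFP to DsRed ratio, PSI derived from sequencing read proportions per bin multiplied by bin number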
Conditions: c terminus: a fixed tail appended
Response key: 1 means protein stability index >= 3; 0 means protein stability index < 3.

Consider the worked cases shown below.
>>> df
   mutation_id  group
0          E5C      0
1         N14P      0
2         G18V      0
3          T6H      0
4          E8N      0
5         V13S      1
6         N14D      1
7         S23Q      0
8         A19F      0
9         K24W      0

Incoming: Test whether the variant C9W records protein stability index of 3 or higher.
Outgoing: 0

Incoming: Test whether the variant G18L records protein stability index of 3 or higher.
Outgoing: 0
